Test: Miscibility with solvents, visual evaluation at 5 wt %
Format: physicochemical
Design: key: ⊚: dissolves at room temperature; ◯: dissolves when heated for 5 minutes at 40° C.; Δ: dissolves under heating, but cooling precipitates crystals; X: does not dissolve
Settings: complex added at 5 wt %

Compound | Miscibility, Toluene
O=P(c1ccccc1)(c1ccccc1)c1ccccc1.O=P(c1ccccc1)(c1ccccc1)c1ccccc1.O=P(c1ccccc1)(c1ccccc1)c1ccccc1.O=P(c1ccccc1)(c1ccccc1)c1ccccc1.O=P(c1ccccc1)(c1ccccc1)c1ccccc1.O=P(c1ccccc1)(c1ccccc1)c1ccccc1.O=P(c1ccccc1)(c1ccccc1)c1ccccc1.O=P(c1ccccc1)(c1ccccc1)c1ccccc1.O=S(=O)([N-]S(=O)(=O)C(F)(F)F)C(F)(F)F.O=S(=O)([N-]S(=O)(=O)C(F)(F)F)C(F)(F)F.O=S(=O)([N-]S(=O)(=O)C(F)(F)F)C(F)(F)F.[Tb+3] | ◯
O=C(C=C([O-])C(F)(F)F)C(F)(F)F.O=C(C=C([O-])C(F)(F)F)C(F)(F)F.O=C(C=C([O-])C(F)(F)F)C(F)(F)F.O=P(c1ccccc1)(c1ccccc1)c1ccccc1.O=P(c1ccccc1)(c1ccccc1)c1ccccc1.[Eu+3] [Eu(HFA)3(TPPO)2, reference compound] | ◯
O=C(C=C([O-])C(F)(F)F)C(F)(F)F.O=C(C=C([O-])C(F)(F)F)C(F)(F)F.O=C(C=C([O-])C(F)(F)F)C(F)(F)F.[Eu+3] [Eu(HFA)3, reference compound] | X

###

Assay: Number of moles of bound water per mole of complex (TG-DTA)
Format: physicochemical
Conditions: Table 1; dried samples for the ternary complexes
Attribute measured: Bound water (number of moles of bound water per mole of complex)
Answers are plain numbers.

Compound | Reported
O=S(=O)([N-]S(=O)(=O)C(F)(F)F)C(F)(F)F.O=S(=O)([N-]S(=O)(=O)C(F)(F)F)C(F)(F)F.O=S(=O)([N-]S(=O)(=O)C(F)(F)F)C(F)(F)F.O=S(c1ccccc1)c1ccccc1.O=S(c1ccccc1)c1ccccc1.O=S(c1ccccc1)c1ccccc1.O=S(c1ccccc1)c1ccccc1.O=S(c1ccccc1)c1ccccc1.O=S(c1ccccc1)c1ccccc1.O=S(c1ccccc1)c1ccccc1.O=S(c1ccccc1)c1ccccc1.[Eu+3] | 0.00
O=S(=O)([N-]S(=O)(=O)C(F)(F)F)C(F)(F)F.O=S(=O)([N-]S(=O)(=O)C(F)(F)F)C(F)(F)F.O=S(=O)([N-]S(=O)(=O)C(F)(F)F)C(F)(F)F.[Eu+3] [Eu(PMS)3, reference compound] | 2.08
O=S(=O)([N-]S(=O)(=O)C(F)(F)F)C(F)(F)F.O=S(=O)([N-]S(=O)(=O)C(F)(F)F)C(F)(F)F.O=S(=O)([N-]S(=O)(=O)C(F)(F)F)C(F)(F)F.[Nd+3] [Nd(PMS)3, reference compound] | 2.32
O=C(C=C([O-])C(F)(F)F)C(F)(F)F.O=C(C=C([O-])C(F)(F)F)C(F)(F)F.O=C(C=C([O-])C(F)(F)F)C(F)(F)F.[Nd+3] [Nd(HFA)3, reference compound] | 2.00
O=S(=O)([N-]S(=O)(=O)C(F)(F)F)C(F)(F)F.O=S(=O)([N-]S(=O)(=O)C(F)(F)F)C(F)(F)F.O=S(=O)([N-]S(=O)(=O)C(F)(F)F)C(F)(F)F.O=S(c1ccccc1)c1ccccc1.O=S(c1ccccc1)c1ccccc1.O=S(c1ccccc1)c1ccccc1.O=S(c1ccccc1)c1ccccc1.O=S(c1ccccc1)c1ccccc1.O=S(c1ccccc1)c1ccccc1.O=S(c1ccccc1)c1ccccc1.O=S(c1ccccc1)c1ccccc1.[Tb+3] | 0.00

IN: What value of measured Bound water (number of moles of bound water per mole of complex) is listed for `O=S(=O)([N-]S(=O)(=O)C(F)(F)F)C(F)(F)F.O=S(=O)([N-]S(=O)(=O)C(F)(F)F)C(F)(F)F.O=S(=O)([N-]S(=O)(=O)C(F)(F)F)C(F)(F)F.O=S(c1ccccc1)c1ccccc1.O=S(c1ccccc1)c1ccccc1.O=S(c1ccccc1)c1ccccc1.O=S(c1ccccc1)c1ccccc1.O=S(c1ccccc1)c1ccccc1.O=S(c1ccccc1)c1ccccc1.O=S(c1ccccc1)c1ccccc1.O=S(c1ccccc1)c1ccccc1.[Nd+3]` ?
OUT: 0.00

###

Assay: Miscibility with solvents, visual evaluation at 5 wt %
Format: physicochemical
Set-up: key: ⊚: dissolves at room temperature; ◯: dissolves when heated for 5 minutes at 40° C.; Δ: dissolves under heating, but cooling precipitates crystals; X: does not dissolve
Conditions: complex added at 5 wt %

Smiles structure | Miscibility, Acetone
O=S(=O)([N-]S(=O)(=O)C(F)(F)F)C(F)(F)F.O=S(=O)([N-]S(=O)(=O)C(F)(F)F)C(F)(F)F.O=S(=O)([N-]S(=O)(=O)C(F)(F)F)C(F)(F)F.O=S(c1ccccc1)c1ccccc1.O=S(c1ccccc1)c1ccccc1.O=S(c1ccccc1)c1ccccc1.O=S(c1ccccc1)c1ccccc1.O=S(c1ccccc1)c1ccccc1.O=S(c1ccccc1)c1ccccc1.O=S(c1ccccc1)c1ccccc1.O=S(c1ccccc1)c1ccccc1.[Tb+3] | ⊚

###

Assay: Number of moles of bound water per mole of complex (TG-DTA)
Assay type: physicochemical
Settings: Table 1; dried samples for the ternary complexes
Procedure: The number of moles of bound water per mole of complex was measured using a TG-DTA 2000 from MAC Science. A 20 g quantity of Eu(PMS)3 was added to 100 mL of isopropanol, then 43 g ([…] the molar amount of the Eu(PMS)3) of triphenylphosphine oxide (hereinafter referred to as TPPO) was added, and the system was refluxed for 3 hours, and then gradually cooled. The resulting white powder was filtered off. […]
Attribute measured: Bound water (number of moles of bound water per mole of complex)

Compound | Reported
O=S(=O)([N-]S(=O)(=O)C(F)(F)F)C(F)(F)F.O=S(=O)([N-]S(=O)(=O)C(F)(F)F)C(F)(F)F.O=S(=O)([N-]S(=O)(=O)C(F)(F)F)C(F)(F)F.[Eu+3].c1cnc2c(c1)ccc1cccnc12.c1cnc2c(c1)ccc1cccnc12.c1cnc2c(c1)ccc1cccnc12.c1cnc2c(c1)ccc1cccnc12 | 0.00

Give Bound water (number of moles of bound water per mole of complex) for each listed item.
1. O=P(c1ccccc1)(c1ccccc1)c1ccccc1.O=P(c1ccccc1)(c1ccccc1)c1ccccc1.O=P(c1ccccc1)(c1ccccc1)c1ccccc1.O=P(c1ccccc1)(c1ccccc1)c1ccccc1.O=P(c1ccccc1)(c1ccccc1)c1ccccc1.O=P(c1ccccc1)(c1ccccc1)c1ccccc1.O=P(c1ccccc1)(c1ccccc1)c1ccccc1.O=P(c1ccccc1)(c1ccccc1)c1ccccc1.O=S(=O)([N-]S(=O)(=O)C(F)(F)F)C(F)(F)F.O=S(=O)([N-]S(=O)(=O)C(F)(F)F)C(F)(F)F.O=S(=O)([N-]S(=O)(=O)C(F)(F)F)C(F)(F)F.[Nd+3]
2. O=C(C=C([O-])C(F)(F)F)C(F)(F)F.O=C(C=C([O-])C(F)(F)F)C(F)(F)F.O=C(C=C([O-])C(F)(F)F)C(F)(F)F.O=P(c1ccccc1)(c1ccccc1)c1ccccc1.O=P(c1ccccc1)(c1ccccc1)c1ccccc1.[Eu+3] [Eu(HFA)3(TPPO)2, reference compound]
3. O=C(C=C([O-])C(F)(F)F)C(F)(F)F.O=C(C=C([O-])C(F)(F)F)C(F)(F)F.O=C(C=C([O-])C(F)(F)F)C(F)(F)F.[Eu+3] [Eu(HFA)3, reference compound]

OUT:
1: 0.24; 2: 0.00; 3: 2.00

###

Experiment: Number of moles of bound water per mole of complex (TG-DTA)
Assay type: physicochemical
Settings: before drying (crystals as obtained), weight reduction at 100° C.
Give Number of moles of bound water per mole of complex for every item shown.
Numbers only.

Below are worked cases with known answers.
Smiles structure | Reported
O=S(=O)([N-]S(=O)(=O)C(F)(F)F)C(F)(F)F.O=S(=O)([N-]S(=O)(=O)C(F)(F)F)C(F)(F)F.O=S(=O)([N-]S(=O)(=O)C(F)(F)F)C(F)(F)F.[Eu+3].c1cnc2c(c1)ccc1cccnc12.c1cnc2c(c1)ccc1cccnc12.c1cnc2c(c1)ccc1cccnc12.c1cnc2c(c1)ccc1cccnc12 | 3.06
O=P(c1ccccc1)(c1ccccc1)c1ccccc1.O=P(c1ccccc1)(c1ccccc1)c1ccccc1.O=P(c1ccccc1)(c1ccccc1)c1ccccc1.O=P(c1ccccc1)(c1ccccc1)c1ccccc1.O=P(c1ccccc1)(c1ccccc1)c1ccccc1.O=P(c1ccccc1)(c1ccccc1)c1ccccc1.O=P(c1ccccc1)(c1ccccc1)c1ccccc1.O=P(c1ccccc1)(c1ccccc1)c1ccccc1.O=S(=O)([N-]S(=O)(=O)C(F)(F)F)C(F)(F)F.O=S(=O)([N-]S(=O)(=O)C(F)(F)F)C(F)(F)F.O=S(=O)([N-]S(=O)(=O)C(F)(F)F)C(F)(F)F.[Tb+3] | 1.27
O=P(c1ccccc1)(c1ccccc1)c1ccccc1.O=P(c1ccccc1)(c1ccccc1)c1ccccc1.O=P(c1ccccc1)(c1ccccc1)c1ccccc1.O=P(c1ccccc1)(c1ccccc1)c1ccccc1.O=P(c1ccccc1)(c1ccccc1)c1ccccc1.O=P(c1ccccc1)(c1ccccc1)c1ccccc1.O=P(c1ccccc1)(c1ccccc1)c1ccccc1.O=P(c1ccccc1)(c1ccccc1)c1ccccc1.O=S(=O)([N-]S(=O)(=O)C(F)(F)F)C(F)(F)F.O=S(=O)([N-]S(=O)(=O)C(F)(F)F)C(F)(F)F.O=S(=O)([N-]S(=O)(=O)C(F)(F)F)C(F)(F)F.[Eu+3] | 2.93

IN: What value of measured Number of moles of bound water per mole of complex is listed for `O=P(c1ccccc1)(c1ccccc1)c1ccccc1.O=P(c1ccccc1)(c1ccccc1)c1ccccc1.O=P(c1ccccc1)(c1ccccc1)c1ccccc1.O=P(c1ccccc1)(c1ccccc1)c1ccccc1.O=P(c1ccccc1)(c1ccccc1)c1ccccc1.O=P(c1ccccc1)(c1ccccc1)c1ccccc1.O=P(c1ccccc1)(c1ccccc1)c1ccccc1.O=P(c1ccccc1)(c1ccccc1)c1ccccc1.O=S(=O)([N-]S(=O)(=O)C(F)(F)F)C(F)(F)F.O=S(=O)([N-]S(=O)(=O)C(F)(F)F)C(F)(F)F.O=S(=O)([N-]S(=O)(=O)C(F)(F)F)C(F)(F)F.[Yb+3]` ?
OUT: 1.52
